Where these numbers come from: patent US8669072B2

# system: GAL4 DBD (1-147)-CfEcR(DEF)/VP16AD-βRXREF-LmUSPEF (Choristoneura fumiferana)
# Construct: The wild-type D, E, and F domains from spruce budworm Choristoneura fumiferana EcR (“CfEcR-DEF”)
# method: cell-based
# condition info: 48 h, read-out: Fold Induction Average, 27-63 assay
Consider the following molecules; for each one, report its fold induction at 33.3 µM.

A selection of reference data follows.
Cc1cc(C)cc(C2=NOC(C)(C)N2NC(=O)c2ccc(Cl)cc2)c1	6.3
CCc1ccc(C(=O)NN2C(c3ccccc3)=NOC2(C)CC)cc1 (stereo not shown)	4.6
CCc1ccc(C(=O)NN2C(c3ccc(OC)cc3OC)=NOC2(C)C)cc1	0.7
CCc1c(C(=O)NN2C(c3ccccc3)=NOC2(C)C)ccc2c1OCCO2	3510
CCc1ccc(C(=O)NN2C(c3cccc(C(F)(F)F)c3)=NOC2(C)C)cc1	0.7

// input: 6 molecules below; output: fold induction at 33.3 µM for each
1. CCc1ccc(C(=O)NN2C(c3ccc(OC(F)(F)F)cc3)=NOC2(C)C)cc1
2. CCc1ccc(C(=O)NN2C(c3cc(C)cc(C)c3)=NOC23CCCC3)c(F)c1
3. CCc1ccc(C(=O)NN2C(c3ccccc3)=NOC2(C)C)c(F)c1
4. Cc1cc(C)cc(C2=NOC(C)(C)N2NC(=O)c2cccc(F)c2)c1
5. CCc1ccc(C(=O)NN2C(c3ccccc3)=NOC23CCCC3)c(F)c1
6. CCc1ccc(C(=O)NN2C(c3cc(C)cc(C)c3)=NOC23CCOCC3)cc1

Reply:
[0.5, 36.6, 7.9, 5.7, 1.7, 0.8]

Please look at the items below and tell me fold induction at 33.3 µM for each one, in order.
1. CCc1ccc(C(=O)NN2C(c3cc(C)cc(C)c3)=NOC2(C)CC)c(F)c1 (stereo not shown)
2. CCc1c(OC)cccc1C(=O)NN1C(c2ccccc2)=NOC12CCOCC2
3. CCc1c(OC)cccc1C(=O)NN1C(c2cc(C)cc(C)c2)=NOC1(C)CC (stereo not shown)
4. CCc1ccc(C(=O)NN2C(c3cc(C)cc(C)c3)=NOC2(C)CC)cc1 (stereo not shown)

Reply:
1. 1020
2. 3.7
3. 1870
4. 338

Would you mind giving fold induction at 33.3 µM for every molecule in the list below?
1. CCc1c(OC)cccc1C(=O)NN1C(c2ccccc2)=NOC12CCCC2
2. CCc1c(OC)cccc1C(=O)NN1C(c2ccc3c(c2)OCO3)=NOC1(C)C
3. CCc1ccc(C(=O)NN2C(c3ccccc3OC)=NOC2(C)C)cc1
4. COc1cccc(C(=O)NN2C(c3cc(C)cc(C)c3)=NOC2(C)C)c1C
5. CCc1c(OC)cccc1C(=O)NN1C(c2ccccc2)=NOC1(C)CC (stereo not shown)
6. CCc1c(OC)cccc1C(=O)NN1C(c2ccc(Cl)cc2)=NOC1(C)C
7. CCc1ccc(C(=O)NN2C(c3ccccc3)=NOC23CCOCC3)cc1

Reply:
1. 2190
2. 1.4
3. 8.5
4. 2710
5. 4090
6. 1330
7. 1

----------
# Test system: MTA (two-spotted spider mite)
# method: Insect toxicity contact bioassay, MTA
# Type: in vivo
# condition info: in vivo
Assignment: determine reported Insect Toxicity LC50, MTA for the given molecules.
Answers are plain numbers, in ppm.

CCC1(C)ON=C(c2cc(C)cc(C)c2)N1NC(=O)c1cc2ccccc2s1 (stereo not drawn)	110

Could I get Insect Toxicity LC50, MTA for every one of these entries?
1. CCc1c(OC)cccc1C(=O)NN1C(c2ccccc2)=NOC1(C)CC (stereo not drawn)
2. CCc1c(OC)cccc1C(=O)NN1C(c2cc(C)cc(C)c2)=NOC1(C)CC (stereo not drawn)
3. CCc1ccc(C(=O)NN2C(c3ccccc3)=NOC23CCCC3)cc1

Reply:
92
146
167

----------
# Tested on: Beet Armyworm
# method: Insect toxicity feeding bioassay, BAW
# Assay type: in vivo
# condition info: in vivo
recorded endpoint: Insect Toxicity LC50, BAW (ppm)
Numbers only, in ppm.

Study these solved cases before continuing.
CCc1c(OC)cccc1C(=O)NN1C(c2ccccc2)=NOC12CCCC2	47
CCc1ccc(C(=O)NN2C(c3cc(C)cc(C)c3)=NOC2(C)CC)cc1 (centres unmarked)	47

Please report Insect Toxicity LC50, BAW for every entry that follows.
1. CCc1c(OC)cccc1C(=O)NN1C(c2cc(C)cc(C)c2)=NOC1(C)CC (centres unmarked)
2. CCc1c(OC)cccc1C(=O)NN1C(c2cc(C)cc(C)c2)=NOC1(C)C
3. CCc1ccc(C(=O)NN2C(c3ccccc3)=NOC23CCCC3)cc1

Reply:
1. 4.7
2. 23
3. 98

----------
For each record, write down the corresponding Rel Max FI, Z3 assay.
# system: Bombyx mori EcR (VBE) (Bombyx mori, UniProt P49881)
# Construct: expressed in transfected cells; host or cells: Human HEK-293 cells, retrovirally infected, clone Z3
# Sequence (P49881 86-606 limits assumed): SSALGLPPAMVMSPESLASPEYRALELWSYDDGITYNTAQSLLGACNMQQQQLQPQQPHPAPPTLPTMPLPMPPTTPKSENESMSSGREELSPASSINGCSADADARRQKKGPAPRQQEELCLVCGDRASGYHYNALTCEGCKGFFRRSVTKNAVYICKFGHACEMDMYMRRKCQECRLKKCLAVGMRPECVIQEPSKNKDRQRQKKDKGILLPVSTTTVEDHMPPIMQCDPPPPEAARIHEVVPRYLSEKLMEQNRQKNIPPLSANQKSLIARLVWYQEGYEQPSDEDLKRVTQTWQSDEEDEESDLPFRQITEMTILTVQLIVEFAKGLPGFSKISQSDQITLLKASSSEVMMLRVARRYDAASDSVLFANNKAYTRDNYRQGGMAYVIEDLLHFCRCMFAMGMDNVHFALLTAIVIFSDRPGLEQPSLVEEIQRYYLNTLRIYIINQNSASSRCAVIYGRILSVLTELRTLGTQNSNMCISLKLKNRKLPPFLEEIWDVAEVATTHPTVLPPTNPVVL
# Sequence (P19793 whole entry partner): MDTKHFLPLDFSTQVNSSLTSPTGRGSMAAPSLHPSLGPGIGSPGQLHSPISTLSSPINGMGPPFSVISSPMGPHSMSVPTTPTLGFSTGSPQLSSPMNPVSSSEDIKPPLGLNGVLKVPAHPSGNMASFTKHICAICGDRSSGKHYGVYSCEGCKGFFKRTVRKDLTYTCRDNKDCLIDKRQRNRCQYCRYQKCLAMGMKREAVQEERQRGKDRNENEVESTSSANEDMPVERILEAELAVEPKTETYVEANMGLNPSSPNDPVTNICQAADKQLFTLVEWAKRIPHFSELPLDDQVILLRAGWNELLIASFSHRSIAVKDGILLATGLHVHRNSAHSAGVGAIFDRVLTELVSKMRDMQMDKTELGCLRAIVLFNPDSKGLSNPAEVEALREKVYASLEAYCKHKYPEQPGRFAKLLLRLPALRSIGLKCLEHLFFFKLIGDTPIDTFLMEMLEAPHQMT
# method: Z3 assay: β-galactosidase reporter gene induction in HEK-293 clone Z3 (CVBE / 6XEcRE LacZ)
# Assay type: cell-based
# condition info: maximum fold induction relative to that of GS-E ligand
Numbers only.

CCOC(=O)CCC(=O)NN1C(c2cc(C)cc(C)c2)=NOC1(C)CC (centres unmarked) [RG-120126]	0.04
CCC1(C)ON=C(c2cc(C)cc(C)c2)N1NC(=O)c1cc2ccccc2s1 (centres unmarked) [RG-120161]	0.08
CCc1c(OC)cccc1C(=O)NN1C(c2cc(C)cc(C)c2)=NOC1(C)CC (centres unmarked) [RG-120069]	0.8

For every item in the list below, what is its measured Rel Max FI, Z3 assay?
1. CCc1c(OC)cccc1C(=O)NN1C(c2ccccc2)=NOC1(C)CC (centres unmarked) [RG-120076]
2. CCc1c(OC)cccc1C(=O)NN1C(c2cc(C)cc(C)c2)=NOC1(C)C [RG-120080]
3. CCc1ccc(C(=O)NN2C(c3ccccc3)=NOC23CCCC3)cc1 [RG-120125]
4. COc1ccc(C2=NOC(C)(C)N2NC(=O)c2ccccc2)c(OC)c1 [RG-120096]
5. CCc1c(OC)cccc1C(=O)NN1C(c2cc(C)cc(C)c2)=NOC12CCCC2 [RG-120049]

Reply:
1: 0.9; 2: 0.71; 3: 0.67; 4: 0; 5: 0.88

----------
# system: GAL4 DBD-CfEcR(DEF)/VP16AD-MmRXRE (Choristoneura fumiferana, UniProt O77240)
# Construct: The wild-type D, E, and F domains from spruce budworm Choristoneura fumiferana EcR (“CfEcR-DEF”)
# method: 13B3 assay: luciferase reporter gene induction in stable CHO clone 13B3
# Type: cell-based
# condition info: 33/33.3 μM ligand, 48 h, RLU relative to DMSO
Decide by Fold Induction Average, 13B3 assay: equal to or exceeding 0.9 means 1, less means 0.

COc1ccccc1C(=O)NN1C(c2cc(C)cc(C)c2)=NOC1(C)C	1
Cc1cc(C)cc(C2=NOC(C)(C)N2NC(=O)c2ccccc2[N+](=O)[O-])c1	0
Cc1cc(C)cc(C2=NOC(C)(C)N2NC(=O)c2cccc([N+](=O)[O-])c2)c1	0
CC1(C)ON=C(c2ccc(Cl)cc2)N1NC(=O)COCc1ccccc1	1
CC1(C)ON=C(c2ccc3c(c2)OCO3)N1NC(=O)Cc1ccccc1	0
COc1ccc(C2=NOC(C)(C)N2NC(=O)COc2ccccc2)c(OC)c1	0
CC1(C)ON=C(c2ccc(Cl)cc2)N1NC(=O)c1ccccc1	0
CC1(C)ON=C(c2ccc(OC(F)(F)F)cc2)N1NC(=O)COCc1ccccc1	1

Ask: Evaluate COc1ccccc1C1=NOC(C)(C)N1NC(=O)c1ccccc1 : Fold Induction Average, 13B3 assay at minimum 0.9?
Reply: 1

Ask: Dear colleague, could you confirm whether COc1ccc(C2=NOC(C)(C)N2NC(=O)c2ccco2)c(OC)c1 has Fold Induction Average, 13B3 assay at or above 0.9?
Reply: 0

----------
# System: WFN (white fly)
# method: Insect toxicity contact bioassay, WFN
# Assay type: in vivo
# condition info: in vivo
Provide the reported Insect Toxicity LC50, WFN of each item.

CCc1ccc(C(=O)NN2C(c3cc(C)cc(C)c3)=NOC2(C)CC)cc1 (stereo not drawn)	>150 ppm
CCc1c(OC)cccc1C(=O)NN1C(c2cc(C)cc(C)c2)=NOC1(C)CC (stereo not drawn)	>150 ppm
CCc1c(OC)cccc1C(=O)NN1C(c2ccccc2)=NOC12CCCC2	>150 ppm
CCc1c(OC)cccc1C(=O)NN1C(c2ccccc2)=NOC1(C)CC (stereo not drawn)	>150 ppm
CCC1(C)ON=C(c2cc(C)cc(C)c2)N1NC(=O)c1cc2ccccc2s1 (stereo not drawn)	>150 ppm

Now consider a different compound.
CCc1ccc(C(=O)NN2C(c3ccccc3)=NOC23CCCC3)cc1 tested on WFN (white fly) gave Insect Toxicity LC50, WFN: 150 ppm
